- Measurement Target: EGFR del19/C797S (Homo sapiens, UniProt P00533, C797S/DEL746-750)
- Sequence (P00533 with tags, fused parts or gaps DEL746-750/C797S): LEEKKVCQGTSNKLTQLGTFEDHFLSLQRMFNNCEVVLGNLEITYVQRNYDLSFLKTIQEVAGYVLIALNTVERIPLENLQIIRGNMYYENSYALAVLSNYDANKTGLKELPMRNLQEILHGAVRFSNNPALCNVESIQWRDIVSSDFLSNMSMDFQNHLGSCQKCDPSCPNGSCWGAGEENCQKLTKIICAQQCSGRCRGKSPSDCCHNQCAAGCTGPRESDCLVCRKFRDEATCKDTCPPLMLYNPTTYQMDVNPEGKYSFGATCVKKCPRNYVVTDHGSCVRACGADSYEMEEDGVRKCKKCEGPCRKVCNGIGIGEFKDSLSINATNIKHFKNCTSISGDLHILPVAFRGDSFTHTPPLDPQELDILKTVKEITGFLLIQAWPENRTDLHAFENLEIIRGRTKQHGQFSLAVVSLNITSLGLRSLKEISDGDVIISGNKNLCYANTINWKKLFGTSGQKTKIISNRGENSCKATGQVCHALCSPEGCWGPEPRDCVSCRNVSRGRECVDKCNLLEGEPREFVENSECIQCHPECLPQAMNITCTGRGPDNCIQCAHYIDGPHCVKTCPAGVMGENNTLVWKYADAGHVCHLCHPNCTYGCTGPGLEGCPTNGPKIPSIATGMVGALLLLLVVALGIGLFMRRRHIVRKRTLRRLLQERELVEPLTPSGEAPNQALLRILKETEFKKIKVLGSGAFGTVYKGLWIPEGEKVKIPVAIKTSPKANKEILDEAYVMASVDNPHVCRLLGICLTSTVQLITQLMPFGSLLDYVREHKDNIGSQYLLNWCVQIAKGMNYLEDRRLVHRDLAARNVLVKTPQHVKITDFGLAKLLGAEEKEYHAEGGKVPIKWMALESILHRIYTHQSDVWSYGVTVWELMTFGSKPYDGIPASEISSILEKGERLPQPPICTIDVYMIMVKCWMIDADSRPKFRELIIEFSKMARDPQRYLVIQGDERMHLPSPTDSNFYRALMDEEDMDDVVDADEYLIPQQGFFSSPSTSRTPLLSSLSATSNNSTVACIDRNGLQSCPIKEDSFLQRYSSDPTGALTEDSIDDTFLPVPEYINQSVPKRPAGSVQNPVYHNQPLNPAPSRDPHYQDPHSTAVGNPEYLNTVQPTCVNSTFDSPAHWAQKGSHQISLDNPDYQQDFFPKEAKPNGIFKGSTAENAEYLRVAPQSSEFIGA
- Protocol Summary: Biochemical EGFR kinase assay (Lance Ultra TR-FRET), double mutant del19/C797S
- Measurement Parameters: Km ATP; read-out: IC50 del19/C797S (nM) Km ATP
Assay Readout: IC50

> print(dat)
                                   molecule  value.reported
1  C[C@]1(O)CC[C@@H](Nc2cc(Nc3ccnc(-c4cnn(S(=O)(=O)C5CC5)c4)n3)ncc2-c2ccn(C(F)(F)F)n2)CC1 [Example 285]          2.3 nM
2  CC1(O)CCC(Nc2cc(Nc3ccnc(-c4cnn(C5CCCO5)c4)n3)ncc2-c2ccn(C(F)F)n2)CC1 (stereo not drawn) [Example 318]         57.1 nM
3  CN(C)CC[C@H]1CC[C@@H](Nc2cc(Nc3ccnc(-c4cnn(S(=O)(=O)C5CC5)c4)n3)ncc2-c2ccn(C)n2)CC1 [Example 240]          0.2 nM
4  CN(C)C[C@H]1CC[C@@H](Nc2cc(Nc3ccnc(-c4cnn(S(=O)(=O)C5CC5)c4)n3)ncc2-c2ccn(C(F)F)n2)CC1 [Example 195]          0.2 nM
5  O=S(=O)(C1CC1)n1cc(-c2nccc(Nc3cc(C#Cc4cnn(C5CC5)c4)c(-c4cnn(C5CC5)c4)cn3)n2)cn1 [Example 5]          317 nM
6  O=S(=O)(C1CC1)n1cc(-c2nccc(Nc3cc(NC4CCN(CC(F)F)CC4)c(-c4ccn(C(F)F)n4)cn3)n2)cn1 [Example 219]          134 nM

====

- Measurement Target: EGFR del19/T790M/C797S (Homo sapiens, UniProt P00533, C797S/DEL746-750/T790M)
- Sequence (P00533 with tags, fused parts or gaps DEL746-750/T790M/C797S): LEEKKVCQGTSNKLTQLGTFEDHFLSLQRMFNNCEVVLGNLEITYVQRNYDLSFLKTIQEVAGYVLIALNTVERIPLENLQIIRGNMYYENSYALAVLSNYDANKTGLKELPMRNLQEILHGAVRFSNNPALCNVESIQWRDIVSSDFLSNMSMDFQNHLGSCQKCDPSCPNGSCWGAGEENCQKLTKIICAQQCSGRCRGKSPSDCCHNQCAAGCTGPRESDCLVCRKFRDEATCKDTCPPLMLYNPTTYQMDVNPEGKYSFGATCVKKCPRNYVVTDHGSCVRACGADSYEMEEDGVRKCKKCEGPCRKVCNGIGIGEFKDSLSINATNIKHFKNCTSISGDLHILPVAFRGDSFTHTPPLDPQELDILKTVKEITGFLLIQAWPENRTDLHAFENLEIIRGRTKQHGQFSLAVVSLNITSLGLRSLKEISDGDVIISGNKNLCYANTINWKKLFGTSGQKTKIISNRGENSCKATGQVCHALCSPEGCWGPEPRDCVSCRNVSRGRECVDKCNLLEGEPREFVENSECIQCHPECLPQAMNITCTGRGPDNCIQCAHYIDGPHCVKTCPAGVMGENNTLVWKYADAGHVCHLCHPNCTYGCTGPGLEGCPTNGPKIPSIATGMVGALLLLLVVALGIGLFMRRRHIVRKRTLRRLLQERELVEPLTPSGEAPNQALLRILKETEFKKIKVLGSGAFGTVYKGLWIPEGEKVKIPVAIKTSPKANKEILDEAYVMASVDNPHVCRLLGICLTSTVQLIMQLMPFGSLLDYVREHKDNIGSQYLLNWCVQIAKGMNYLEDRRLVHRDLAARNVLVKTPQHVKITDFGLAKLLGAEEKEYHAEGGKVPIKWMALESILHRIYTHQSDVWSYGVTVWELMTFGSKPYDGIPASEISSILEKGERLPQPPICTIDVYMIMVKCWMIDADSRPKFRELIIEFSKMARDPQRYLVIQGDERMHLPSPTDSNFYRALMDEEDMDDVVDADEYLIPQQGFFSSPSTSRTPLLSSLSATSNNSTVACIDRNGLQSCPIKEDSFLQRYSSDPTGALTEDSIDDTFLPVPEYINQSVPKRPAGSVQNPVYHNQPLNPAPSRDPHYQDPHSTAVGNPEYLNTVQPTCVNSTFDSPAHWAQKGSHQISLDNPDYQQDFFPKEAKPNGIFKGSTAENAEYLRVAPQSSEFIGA
- Protocol Summary: Biochemical EGFR kinase assay (Lance Ultra TR-FRET), triple mutant del19/T790M/C797S
- Measurement Parameters: IC50 del19/T790M/C797S (nM) 100 μM ATP, 100 μM ATP
Label 1 when IC50 < 0.7 nM; otherwise -1.

> print(dat)
                                    compound  qualitative.label
 1  CN(C)C(=O)C[C@H]1CC[C@@H](Nc2cc(Nc3ccnc(-c4cnn(S(=O)(=O)C5CC5)c4)n3)ncc2-c2ccn(C)n2)CC1                  1
 2  Cc1ncc(-c2cnc(Nc3ccnc(-c4cnn(S(=O)(=O)C5CC5)c4)n3)cc2N[C@H]2CC[C@@H](O)CC2)s1                 -1
 3  CC(O)C(C)(C)Nc1cc(Nc2ccnc(-c3cnn(S(=O)(=O)C4CC4)c3)n2)ncc1-c1ccn(C)n1 (stereo not shown)                 -1
 4  O=S(=O)(C1CC1)n1cc(-c2nccc(Nc3cc(N[C@H]4CCC[C@H](CO)C4)c(-c4ccn(C(F)F)n4)cn3)n2)cn1                 -1
 5  CC(C)(O)c1nc(-c2cnc(Nc3ccnc(-c4cnn(S(=O)(=O)C5CC5)c4)n3)cc2N[C@H]2CCC[C@H](O)C2)cs1                 -1
 6  CC(C)(O)[C@H]1CC[C@@H](Nc2cc(Nc3ccnc(-c4cnn(S(=O)(=O)C5CC5)c4)n3)ncc2-c2ccn(CC(F)(F)F)n2)CC1                 -1
 7  O=C1NCCCC1Nc1cc(Nc2ccnc(-c3cnn(S(=O)(=O)C4CC4)c3)n2)ncc1-c1ccn(C(F)F)n1 (stereo not shown)                  1
 8  Cc1cc(-c2cnc(Nc3ccnc(-c4cnn(S(=O)(=O)C5CC5)c4)n3)cc2N[C@H]2CC[C@@H](C(C)(C)O)CC2)nn1C                 -1
 9  O=S(=O)(C1CC1)n1cc(-c2nccc(Nc3cc(NC4CCC(O)C4)c(-c4ccn(C(F)F)n4)cn3)n2)cn1 (stereo not shown)                  1
10  CN(C)CCCn1ccc(-c2cnc(Nc3ccnc(-c4cnn(S(=O)(=O)C5CC5)c4)n3)cc2N[C@H]2CC[C@@H](CO)CC2)n1                  1
11  CC(C)(O)Cn1cc(-c2nccc(Nc3cc(N[C@H]4CC[C@@](C)(O)CC4)c(-c4ccn(C(F)F)n4)cn3)n2)cn1                 -1
12  O=S(=O)(C1CC1)n1cc(-c2nccc(Nc3cc(N[C@H]4CC[C@@H](CO)CC4)c(-c4ccn(C5COC5)n4)cn3)n2)cn1                  1
